System: Sonic hedgehog protein (Shh)
test summary: small-molecule binders of Shh protein, primary screen, biochemical, small-molecule microarray, 635/667 nm fluorescence (AID 1151);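 also: Shh protein binding to compounds spotted on small-molecule microarray slides; score combines spot fluorescence intensity with signal-to-noise across triplicate slides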
details: small-molecule microarray binding, 635 nm fluorescence; higher = more signal
Threshold check on composite z-score: at or above 1 gives rule met, strictly below gives rule not met.

{"compound": "C=CC[C@@H]1C=C[C@H](ON=C[C@@H](OC)[C@H](C)C=CCC(=O)OC)[C@@H](CO)O1", "qualitative label": "rule not met"}
{"compound": "CCOC(=O)[C@H](CC(C)C)NC(=O)CCC1CC(OC(=O)NCc2cccc3ccccc23)CC2(CCCC(COC(=O)NCCc3ccccc3OC)O2)O1 (some centres not stated)", "qualitative label": "rule met"}
{"compound": "CCCNC(=O)OC[C@H]1O[C@H](CCON=C[C@@H](OC)[C@H](C)C=CCC(=O)OC)C=C[C@@H]1Oc1ccc(OC)cc1", "qualitative label": "rule met"}
{"compound": "CC(C)(C)OC(=O)CC[C@]1(C(=O)NCc2ccccc2)N=C(c2ccc(OCCCO)cc2)O[C@H]1c1ccccc1", "qualitative label": "rule not met"}
{"compound": "COc1ccc(O[C@H]2C=C[C@@H](c3ccccc3)O[C@@H]2COC(=O)CCC(C)=NOC(C)CN2CCCCc3nc(C)c(C)cc32)cc1 (some centres not stated)", "qualitative label": "rule not met"}
{"compound": "O=C1O[C@@H](c2ccccc2)[C@@H](c2ccccc2)N2[C@@H](c3ccc(OCCO)cc3)[C@]3(C(=O)Nc4ccc(C#CCCO)cc43)[C@@H](C(=O)N3CCCCCCC3)[C@H]12", "qualitative label": "rule met"}
{"compound": "COc1ccc([Si](C)(C)[C@H]2[C@H](CCO)O[C@@]3(C(=O)N(Cc4cccc(NC(=O)[C@H](C)O)c4)c4ccccc43)[C@@H]2C)cc1", "qualitative label": "rule met"}
{"compound": "COC(=O)CC=C[C@@H](C)[C@@H](C=NO[C@@H](C)c1cc(-c2c(C)cc(C)cc2C)no1)OC", "qualitative label": "rule not met"}
{"compound": "C[C@@H]1C=CCC(=O)OC[C@H](C)C(=O)N2CCC[C@H]2C(=O)OC1", "qualitative label": "rule met"}
{"compound": "COc1ccc(OC[C@H]2Cc3c(-c4ccccc4)nc4c(c3CO2)CN(CCOc2ccccc2)CC4)cc1", "qualitative label": "rule met"}
{"compound": "CCN1C(=O)[C@H]2[C@H]3[C@H](O)[C@H](O)CC(=NO[C@@H]4O[C@H](CO)[C@@H](O)[C@H](O)[C@H]4O)[C@@H]3CC[C@H]2C1=O", "qualitative label": "rule not met"}
{"compound": "C=CCOC(=O)[C@H]1[C@@H]2C(=O)O[C@@H](c3ccccc3)[C@@H](c3ccccc3)N2[C@@H](c2ccc(OCCOC(=O)[C@H]3C[C@H]4C(=O)N5CCC[C@H]5C(=O)N4[C@H]3c3cccc(OCCO)c3)cc2)[C@]12C(=O)Nc1ccc(I)cc12", "qualitative label": "rule met"}

---

Tested on: Plasmodium falciparum Sir2 (PF13_0152, Sir2A)
test summary: pfSir2 binders on small-molecule microarrays, primary screen, biochemical, small-molecule microarray, 635 nm fluorescence (AID 1098);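 also: score merges spot fluorescence intensity with its signal-to-noise ratio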
details: small-molecule microarray binding, fluorescence 635 nm; higher = more signal

{"chemical smiles": "COC(=O)[C@]1(CO)N=C(c2ccc(OCCCO)cc2)O[C@@H]1c1ccccc1N=[N+]=[N-]", "assay target": "Plasmodium falciparum Sir2 (PF13_0152, Sir2A)", "composite z-score": 0.428}
{"chemical smiles": "C#CCCCON=C1C[C@@H](O)[C@@H](O)[C@@H]2[C@@H]3C(=O)N(Cc4ccccc4)C(=O)[C@@H]3CC[C@H]12", "assay target": "Plasmodium falciparum Sir2 (PF13_0152, Sir2A)", "composite z-score": 1.43}
{"chemical smiles": "CC(=O)OC[C@H]1O[C@H](CCON=C(C)CCC(=O)OC[C@H]2O[C@H](C#Cc3ccccc3)C=C[C@@H]2Oc2ccc(C)cc2)C=C[C@@H]1OC(C)=O", "assay target": "Plasmodium falciparum Sir2 (PF13_0152, Sir2A)", "composite z-score": 0.825}
{"chemical smiles": "COc1ccc(-c2nc3c(c4c2C[C@H](C)OC4)CN(CCC(C)C)CC3)cc1", "assay target": "Plasmodium falciparum Sir2 (PF13_0152, Sir2A)", "composite z-score": 0.785}

All figures here come from PubChem BioAssay.
